- MEASURED ON: T1, human PD-1 (#PD1-H82E4, AcroBiosystems) (human, UniProt Q15116 25-167)
- T1 construct: bought
- TEST: SPR, PD-1 on captured IgG1
Property: kon; scope: individual binders
Response body: numeric value in M⁻¹ s⁻¹, unit text excluded.

Below, each entry is followed by its recorded kon result.
{"BINDER": "PEV057 (antibody, human IgG1, V domains shown, human IgG1) VH: VQLVQSGAEVKKPGASVKVSCKASGYTFTNFYIHWVRQAPGQGLEWMGSIYPNYGITAYNQKFKDRVTMTVDTSTSTAYMELRSLRSDDTATYYCARGYSYAMDYWGQGTTVTVSS VL: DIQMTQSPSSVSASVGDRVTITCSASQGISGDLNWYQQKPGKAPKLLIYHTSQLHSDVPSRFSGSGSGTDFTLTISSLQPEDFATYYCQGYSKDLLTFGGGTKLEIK", "UNIT LABEL": "M⁻¹ s⁻¹", "ASSAY VALUE": 363000}
{"BINDER": "XVT458-z2-m6 (antibody, human IgG1, V domains shown, human IgG1; also called anti-PD-1 antibody clone XVT458-z2-m6) VH: VQLVQSGAEVKKPGASVKVSCKASGYTFTNFYIHWVRQAPGQGLEWMGSIYPNYGITAYNQKFKDRVTMTVDTSTSTAYMELRSLRSDDTAVYYCARGYSYAMDYWGQGTTVTVSS VL: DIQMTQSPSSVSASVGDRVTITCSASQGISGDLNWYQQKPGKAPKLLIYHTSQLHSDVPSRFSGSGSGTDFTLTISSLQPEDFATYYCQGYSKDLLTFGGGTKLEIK", "UNIT LABEL": "M⁻¹ s⁻¹", "ASSAY VALUE": 333000}
{"BINDER": "WAZ460 (antibody, human IgG1, V domains shown, human IgG1) VH: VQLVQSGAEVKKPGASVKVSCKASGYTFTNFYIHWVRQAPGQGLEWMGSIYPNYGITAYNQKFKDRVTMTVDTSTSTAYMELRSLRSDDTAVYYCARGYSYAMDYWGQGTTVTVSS VL: DIQMTQSPSSVSASVGDRVTITCRASQGISGDLNWYQQKPGKAPKLLIYHTSQLHSDVPSRFSGSGSGTDFTLTISSLQPEDFATYYCQGYSKDLLTFGGGTKLEIK", "UNIT LABEL": "M⁻¹ s⁻¹", "ASSAY VALUE": 393000}
{"BINDER": "QGA408 (antibody, human IgG1, V domains shown, human IgG1) VH: VQLVQSGAEVKKPGASVKVSCKASGYTFTNFYIHWVRQAPGQGLEWMGSIYPNYGITAFNQKFKDRVTMTVDTSTSTAYMELRSLRSDDTAVYYCARGYSYAMDYWGQGTTVTVSS VL: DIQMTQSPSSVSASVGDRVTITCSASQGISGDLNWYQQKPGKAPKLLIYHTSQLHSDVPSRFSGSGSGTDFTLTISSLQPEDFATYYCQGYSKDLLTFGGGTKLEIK", "UNIT LABEL": "M⁻¹ s⁻¹", "ASSAY VALUE": 434000}
{"BINDER": "ZTD928 (antibody, human IgG1, V domains shown, human IgG1) VH: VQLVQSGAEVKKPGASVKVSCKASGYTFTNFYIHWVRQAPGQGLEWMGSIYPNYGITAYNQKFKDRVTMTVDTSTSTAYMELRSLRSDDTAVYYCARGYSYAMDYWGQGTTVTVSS VL: DIQMTQSPSSVSASVGDRVTITCSASQGISGDLNWYQQKPGKAPKLLIYHTSQLHSDVPSRFSGSGSGTDFTLTISSLQPEDFATYYCQGYSKDTLTFGGGTKLEIK", "UNIT LABEL": "M⁻¹ s⁻¹", "ASSAY VALUE": 349000}

// next entry
Using the record for RZL961 (antibody, human IgG1, V domains shown, human IgG1) VH: VQLVQSGAEVKKPGASVKVSCKASGYTFTNFYIHWVRQAPGQGLEWMGSIYPQYGITAYNQKFKDRVTMTVDTSTSTAYMELRSLRSDDTAVYYCARGYSYAMDYWGQGTTVTVSS VL: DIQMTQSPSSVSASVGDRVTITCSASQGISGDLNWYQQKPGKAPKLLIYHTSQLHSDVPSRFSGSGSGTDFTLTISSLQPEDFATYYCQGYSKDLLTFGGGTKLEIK , report its kon. 444000
